meta.source: PubChem BioAssay

assay: MRP1 drug-resistance reversers in H69AR cells – cell-based, doxorubicin co-treatment, pilot screen (AID 601); settings: H69AR cells, CellTiter-Glo, 72 h; compound alone cytotoxicity; at 10 µM
Label t when viability is strictly below 90%; at or above that, label f.

{"molecule": "COc1ccc(N(C)C(=O)CCS(=O)(=O)c2cccc3nonc23)cc1", "discrete_label": "f"}
{"molecule": "COCCn1c(=O)[nH]c2cc(C(=O)N3CCN(c4ccccc4OC)CC3)ccc2c1=O", "discrete_label": "t"}
{"molecule": "CC(=O)NC(CCS(C)(=O)=O)C(=O)Nc1cccc(C)c1C (configuration not stated)", "discrete_label": "t"}
{"molecule": "CCCOc1ccc(NC2=CC(=O)CC(C)(C)C2)cc1", "discrete_label": "f"}
{"molecule": "COCCCNC(=O)CC1Oc2ccccc2NC1=O (configuration not stated)", "discrete_label": "t"}
{"molecule": "O=C(COc1ccc(F)cc1)Nc1ccc(-n2cnnn2)cc1", "discrete_label": "f"}
{"molecule": "CCn1cc(SCC(=O)Nc2cc(C)on2)c2ccccc21", "discrete_label": "t"}
{"molecule": "COc1c(C(=O)Nc2c(C)n(C)n(-c3ccccc3)c2=O)ccc2ccccc12", "discrete_label": "f"}
{"molecule": "CCCCOC(=O)Cn1c(=O)oc2ccc(C)cc21", "discrete_label": "f"}
{"molecule": "O=C(NCCc1c[nH]c2ccccc12)c1cnc2n(c1=O)CCS2", "discrete_label": "t"}
{"molecule": "CC1CCN(C(=O)Cn2cc3c(n2)CCCC3)CC1", "discrete_label": "f"}
{"molecule": "O=C(COc1ccc(=O)n(-c2ccccc2)n1)Nc1ccccc1", "discrete_label": "f"}
{"molecule": "CCCn1c(=O)c(C(=O)NCc2ccccn2)c(O)c2ccccc21", "discrete_label": "t"}
{"molecule": "CN1CCN(c2nc3c(c(=O)[nH]c(=O)n3C)n2CCSc2nc3ccccc3s2)CC1", "discrete_label": "t"}
{"molecule": "COc1cccc(C2C(C(N)=O)=C(C)Nc3nc(CCCO)nn32)c1OC (configuration not stated)", "discrete_label": "f"}
{"molecule": "Cc1cc(NC(=O)CS(=O)(=O)c2cn(Cc3cccc(F)c3)c3ccccc23)no1", "discrete_label": "f"}
{"molecule": "c1ccc(-c2cn3cccnc3n2)cc1", "discrete_label": "f"}
{"molecule": "CNC(=O)c1ccccc1NC(=O)c1c(O)c2c([nH]c1=O)CCCC2", "discrete_label": "f"}
{"molecule": "CC(=O)Nc1nnc(SCC(=O)NCC2CCCO2)s1 (configuration not stated)", "discrete_label": "f"}
{"molecule": "COc1cccc(C2C3=C(N=C4SCC(=O)N42)c2ccccc2CC3)c1OC (configuration not stated)", "discrete_label": "f"}
{"molecule": "Cc1ccc(C(c2sc3ncnn3c2O)N2CC(C)CC(C)C2)cc1 (configuration not stated)", "discrete_label": "f"}
{"molecule": "CCN(CC)C(=O)COc1ccc2oc(C)c(C(=O)OC(C)C)c2c1", "discrete_label": "t"}
{"molecule": "CCSC1=C(C#N)C(c2ccccc2OC)CC(=O)N1 (configuration not stated)", "discrete_label": "f"}
{"molecule": "COC(=O)CSC1=NS(=O)(=O)c2ccccc21", "discrete_label": "t"}
{"molecule": "COc1ccc(OCC(=O)N2CC3(C)CC2CC(C)(C)C3)cc1 (configuration not stated)", "discrete_label": "f"}
{"molecule": "Cc1ccc(C)n1-n1c(C)nc2sc(-c3ccccc3)cc2c1=O", "discrete_label": "t"}
{"molecule": "Cc1onc(-c2ccccc2Cl)c1C(=O)Nc1cnn(Cc2ccccc2)c1", "discrete_label": "t"}
{"molecule": "O=C(C1CCN(c2nnc(-n3cccc3)s2)CC1)N1CCc2ccccc2C1", "discrete_label": "t"}
{"molecule": "C=CCc1ccccc1OCCCCN1CCCC1", "discrete_label": "t"}
{"molecule": "CCC(=O)N1CCN(c2nc(-c3ccccc3)c3c(c2C#N)CCCC3)CC1", "discrete_label": "f"}
{"molecule": "CC1CCN(c2c(NCc3ccc(C(=O)N4c5ccccc5CC4C)cc3)c(=O)c2=O)CC1 (configuration not stated)", "discrete_label": "t"}
{"molecule": "CC(C)c1nnc(NC(=O)Cc2cccs2)s1", "discrete_label": "f"}
{"molecule": "Cc1ccccc1CSc1nnc(C)c(=O)[nH]1", "discrete_label": "f"}
{"molecule": "Cc1cccc(Cc2c(C)nc3nc(SCC(=O)NCc4ccco4)nn3c2C)c1", "discrete_label": "t"}
